- System: Pseudomonas aeruginosa
- ASSAY OVERVIEW: Antimicrobial activity against Pseudomonas aeruginosa ATCC 13525 after 18 hrs by broth microdilution method
- Format: functional
- TEST SETTINGS: ATCC 13525, 18 h
MEASURED ENDPOINT: log10(MIC) (log10 of the value in mg/L)

COMPOUND | MEASURED NUMBER
Cc1ncc([N+](=O)[O-])n1CCOC(=O)c1ccccc1OCc1c(F)c(F)c(F)c(F)c1F | 2.00
CC1(C)S[C@@H]2[C@H](NC(=O)Cc3ccccc3)C(=O)N2[C@H]1C(=O)O [PENICILLIN G] | 0.80
O=C(N[C@H](CO)[C@H](O)c1ccc([N+](=O)[O-])cc1)C(Cl)Cl [CHLORAMPHENICOL] | -0.11
Cc1ncc([N+](=O)[O-])n1CCOC(=O)c1ccccc1OCc1cccc(F)c1 | 1.70
Cc1ncc([N+](=O)[O-])n1CCOC(=O)c1ccccc1OCc1cccc(C(F)(F)F)c1 | 2.00
Cc1ncc([N+](=O)[O-])n1CCOC(=O)c1ccccc1OCc1ccccc1C(F)(F)F | 2.00
Cc1ncc([N+](=O)[O-])n1CCOC(=O)c1ccccc1OCc1ccccc1 | 1.70
Cc1ncc([N+](=O)[O-])n1CCOC(=O)c1ccccc1OCc1ccc(Cl)c(Cl)c1 | 0.20
Cc1ncc([N+](=O)[O-])n1CCOC(=O)c1ccccc1OCc1ccc(Br)cc1 | 1.10
